Each entry below lists one item and its recorded GI50 value.
Test system: SN12C
test: NCI tumour cell line growth inhibition, 48 h
Active and inactive are the calls of the source. No stated cut-off is given here; in the data, active = GI50 up to about 1.1 µM and inactive = higher.

Ask | Report GI50 for CC(=O)OC1CC[C@@]2(C)C(CC[C@]3(C)C2CC=C2[C@@H]4C(C)[C@H](C)CCC4(C)CCC23C)[C@@]1(C)C(=O)O (stereo partly specified) please.
Reply | 21.5 µM (inactive)

Ask | Report GI50 for O=C(Cn1c2c(c3ccccc31)CCCC2)N1CCOCC1 please.
Reply | > 100 µM (inactive)

Ask | Report GI50 for O=C1Nc2cccc(Cl)c2/C1=C\c1c(Cl)nc2sccn12 please.
Reply | 29.6 µM (inactive)

Ask | Report GI50 for NCCCN(CCCCN(CCCN)Cc1ccccc1)Cc1ccccc1 please.
Reply | 16 µM (inactive)

Ask | Report GI50 for COC(=O)c1c(C)c2c(c(C)c1O)OC(=O)c1c(C)cc(O)c(C=O)c1O2 please.
Reply | > 100 µM (inactive)

---

System: DU-145
test: NCI tumour cell line growth inhibition, 48 h
Calls of active or inactive are those of the source. Cut-off read from the data, not from the text of the source: active = GI50 up to about 1.1 µM and inactive = higher.
endpoint name: GI50

For orientation, consider the following solved cases.
{"compound": "COc1cc2c(cc1OCCCC(=O)Nc1cc(C(=O)NCCCN(C)C)n(C)n1)N=CC1CCCN1C2=O (stereo not given)", "endpoint name": "GI50", "endpoint result": "12.9 µM (inactive)"}
{"compound": "C=C(CN(C)C)C(=O)c1ccccc1Cl", "endpoint name": "GI50", "endpoint result": "36.4 µM (inactive)"}
{"compound": "COc1ccc(COCCOCc2nc(C#N)c(N)o2)cc1", "endpoint name": "GI50", "endpoint result": "> 100 µM (inactive)"}
{"compound": "Nc1ccccc1.O=C(O)C(C(F)(F)F)C(F)(F)F", "endpoint name": "GI50", "endpoint result": "99.5 µM (inactive)"}
{"compound": "COc1cc(OC)c(/C=N\\Nc2nc3ccccc3c(=O)n2-c2ccccc2)c(OC)c1", "endpoint name": "GI50", "endpoint result": "31.3 µM (inactive)"}

Ask | Report GI50 for CCC/C(Cl)=N/OC(NC(=O)OCC)(C(F)(F)F)C(F)(F)F please.
Reply | > 100 µM (inactive)

Ask | Report GI50 for Cc1ccc(S(=O)(=O)NC(=N)N(C)N=O)cc1 please.
Reply | > 100 µM (inactive)

Ask | Report GI50 for CSc1ccccc1P(CCP(c1ccccc1SC)c1ccccc1SC)c1ccccc1SC please.
Reply | 54.5 µM (inactive)

Ask | Report GI50 for COC(=O)C1CCC(=O)N1C(c1cc(OC)c(OC)c(OC)c1)c1cc(OC)c(OC)c(OC)c1 (stereo not given) please.
Reply | > 100 µM (inactive)

Ask | Report GI50 for Cn1c2ccccc2c(=S)c2cc(NC(=O)CCCCC(=O)Nc3ccc4c(c3)c(=S)c3ccccc3n4C)ccc21 please.
Reply | > 100 µM (inactive)

---

Tested on: HL-60
test: NCI tumour cell line growth inhibition, 48 h
Calls of active or inactive are those of the source. No stated cut-off is given here; in the data, active = GI50 up to about 1.1 µM and inactive = higher.
endpoint name: GI50

For orientation, consider the following solved cases.
{"compound": "Cc1ccc2nc(-c3ccc(NC(=O)c4ccc(N)cc4)c(S(=O)(=O)O)c3)sc2c1", "GI50": "> 100 µM (inactive)"}
{"compound": "COc1ccccc1/C=C\\C(=O)C1COCN1 (stereo unspecified)", "GI50": "19 µM (inactive)"}
{"compound": "COc1c(-c2ccc(O)c(O)c2)oc2c(O)c(O)cc(O)c2c1=O", "GI50": "> 10 µM (inactive)"}
{"compound": "CCCCNc1nc(NC2OCC(OC(C)=O)C(OC(C)=O)C2OC(C)=O)c(N=O)c(=O)n1C (stereo unspecified)", "GI50": "> 10 µM (inactive)"}
{"compound": "Cc1ccc(C(=O)CC(O)(C(F)(F)F)C(F)(F)F)cc1[N+](=O)[O-]", "GI50": "2.12 µM (inactive)"}

Ask | Report GI50 for C1=C[C@]2(CCC13OCCO3)COc1ccccc12 please.
Reply | 6.81 µM (inactive)

Ask | Report GI50 for O=C(CC(c1ccccc1)N1CCCCC1)c1ccccc1 (stereo unspecified) please.
Reply | 12.5 µM (inactive)

Ask | Report GI50 for CNC(=O)O/N=C1\N(C)CN(c2ccccc2)C12CCN(CCCC(=O)c1ccc(F)cc1)CC2 please.
Reply | 82 µM (inactive)
